Source: PubChem BioAssay (NCI)

assay.text: NCI Yeast Anticancer Drug Screen. Data for the sgs1 mgt1 strain (AID 161);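 note: 0% = growth of cultures given vehicle only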
stated.conditions: S. cerevisiae sgs1 mgt1 strain, at 5.0 µM (retest, dose inferred, filed as 0.5), active compounds read high
Procedure: Growth inhibition of yeast strains with defined genetic alterations is measured as a screen for potential anti-cancer activity. Selected strains with alterations in DNA damage repair or cell cycle control were exposed to compounds and growth inhibition was measured relative to vehicle treated controls. The strain used in this assay is sgs1 mgt1
This is part of a sample that, as a whole, favours compounds with a hit. Of some 79,000 tested, about 15% had one in any assay.
recorded.metric: growth inhibition (%)
Report only the number, with the unit % understood.

The measured growth inhibition associated with CCOC(=O)c1c[nH]c2cc(C(F)(F)F)ccc2c1=O reads -23

So for OC(C/C=C/c1ccccc1)(c1ccccc1)c1ccccc1 , the logged growth inhibition turned out to be 7

Record CC(=O)c1ccc2ccc3ccc(O)cc3c2c1 . Reported growth inhibition: 2

// Cc1ccc(CC(=O)c2c(C)[nH]c3ccccc23)cc1C : growth inhibition value = 11

Entry under test: CCOC(CN=c1nc(N(C)C)ss1)OCC . Its growth inhibition was 11

Reported growth inhibition ( CCOc1ccc(NC(=O)/C(=C\c2ccc(C)cc2)C(C)=O)cc1 ) = 9

N=C1N(c2ccccc2)C(=S)C(=Nc2ccccc2)N1c1ccccc1 yielded growth inhibition of 8

So for OC1(C2C=CC=C2)c2ccccc2C=Cc2ccccc21 , the logged growth inhibition turned out to be 4

The reported value for COc1ccc2c(c1)C(Cc1ccc(Oc3ccc(CC4c5cc(OC)ccc5CC[N+]4(C)C)cc3)cc1)[N+](C)(C)CC2 (configuration not stated) in terms of growth inhibition is -7

GET /value?item= Clc1c(C(Cl)(Cl)Cl)nsc1N1CCCCC1 &field=growth inhibition returns -3

The measured growth inhibition associated with Clc1cc(Cl)c(Cl)nn1 reads -1

Looking up NC(CC(=O)O)C(=O)O (configuration not stated) , I see its growth inhibition listed as -3

----------
assay.text: NCI Yeast Anticancer Drug Screen. Data for the rad50 strain (AID 155);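 note: 0% = growth of vehicle-only cultures of the same strain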
stated.conditions: S. cerevisiae rad50 strain growth inhibition; at 50.0 µM (retest, dose inferred, filed as 5.0)
Description: Growth inhibition of yeast strains with defined genetic alterations is measured as a screen for potential anti-cancer activity. Selected strains with alterations in DNA damage repair or cell cycle control were exposed to compounds and growth inhibition was measured relative to vehicle treated controls. The strain used in this assay is rad50
Compounds without any hit were thinned out: in the full panel of roughly 79,000, 15% have a hit. Activity calls are given as the source filed them. Cut-off read from the data, not from the text of the source: active = growth inhibition above about 70%; inactive = the rest.
Pick from class 1 = active, class 0 = inactive when you respond.

I'd appreciate the recorded outcome for CC12CCCCC1C/C(=N/NC(N)=O)CC2 (stereo not drawn) from this test.
class 0

What did the test return for CCN(CC)Cc1cc2c(cc1O)CC[C@@H]1[C@@H]2CC[C@]2(C)C(=O)CC[C@@H]12 ?
class 1

Write down the call the test reported for this compound. Item: CCC1CCCC(=O)C1 (stereo not drawn)
class 0

Recorded call for CC1CC[P+](c2ccccc2)(c2ccccc2)c2c1ccc1ccccc21 (stereo not drawn) ?
class 1

For Nc1nc(-c2ccccn2)cc2ccccc12 , what call appears in the results of this test?
class 0

Please state the recorded outcome for this compound: COC(=O)CSC(=S)N1CCOCC1
class 0

For CC(C)(C)OC(=O)NOc1ccc([N+](=O)[O-])cc1[N+](=O)[O-] , what call appears in the results of this test?
class 1

Each compound tested received a call. Report the one for CN(CCN1C(=O)c2cccc3cccc(c23)C1=O)CCN1C(=O)c2cccc3cccc(c23)C1=O .
class 1

What did this assay record as the result for Cc1cccc(Cc2ccccc2Cl)c1O ?
class 1

Please state the recorded outcome for this compound: O=C1CSC(=S)N1c1ccc(F)c(F)c1
class 1

Would you mind telling me which call this test gave CC(=O)OC1CC2C(C)(C)C(=O)C=C[C@]2(C)C2CCC3(C)C(=CC(=O)C3c3ccoc3)[C@]12C (stereo partly drawn) ?
class 0

Outcome? CC(C)(C)c1ccc(-c2c3ccccc3cc3ccccc23)cc1
class 0

Could you check what this test reported for CCOC(=O)C(Cc1c[nH]c2cc([N+](=O)[O-])ccc12)NS(=O)(=O)c1ccc2ccccc2c1 (stereo not drawn) ?
class 1

Record request — test call for O=[N+]([O-])c1cc([N+](=O)[O-])c2ccccc2c1NS(=O)(=O)/C=C/c1ccccc1
class 0

Each compound tested received a call. Report the one for CC1=NC(=Cc2ccc([N+](=O)[O-])cc2)C(=O)N1n1c(-c2ccccc2)nc2ccccc2c1=O .
class 0

Answer briefly: the call reported for Nc1cc(F)c2c(c1)Cc1ccccc1-2 in this assay.
class 1

Look up the recorded call for C=CCNC(=O)c1ccccc1SC(C)=O in this test.
class 1

# lookup: test call for O=C1c2ccccc2C(=O)c2cc(S(=O)(=O)O)ccc21
class 0

Give the logged outcome of this assay for the following compound: COC1/C=C\C=C(/C)C(=O)Nc2cc3nc4ccc(Br)cc4oc-3c(c2=O)CC(C)CC(OC)C(O)C(C)/C=C(\C)C1OC(N)=O (stereo not drawn)
class 1

Given Cc1ccc(S(=O)(=O)NC2CCCCCCC2)cc1 , state the outcome it received in this test.
class 1

Hey, what did the test say about COc1ccc(COc2ccc(C(=O)CCN3CCOCC3)cc2)cc1 ?
class 0

Entry Nc1cc2ccc(O)cc2c2ccccc12 : call = ?
class 1

What did the test return for COC(=O)C1=COC(C)C2C[n+]3ccc4c([nH]c5ccccc54)c3CC12 (stereo not drawn) ?
class 0

----------
assay.text: NCI Yeast Anticancer Drug Screen. Data for the mec2-1 strain (AID 157)
stated.conditions: S. cerevisiae mec2-1 strain, at 5.0 µM (retest, dose inferred, filed as 0.5), active compounds read high
About 79,000 compounds went through this panel and 15% of them were active in at least one assay; those are over-represented in the sample as a whole.
Could you please report measured growth inhibition for the items listed next?
Could you give me the number in %? Just the number is fine.

// growth inhibition lookup, molecule = CCOC(=O)c1c[nH]c2c([N+](=O)[O-])cc(OC)cc2c1=O , result: 2

For this molecule ( O=C(Nc1cc(-c2ccccc2)[nH]n1)c1ccccc1F ), measured growth inhibition is 35

OC1CN(Cc2ccccc2)C[C@@H]1O (some centres undefined) yielded growth inhibition of 11

# growth inhibition (molecule: CC(CCc1nc2ccccc2s1)(c1ccc(O)cc1)c1ccc(O)cc1 ) is -5

The value of growth inhibition measured for the molecule CCN(CC)C(=S)Sc1nc2ccccc2s1 turned out to be -2

Reported growth inhibition ( c1ccc2c(c1)CC1=C(O2)c2ccccc2OC1 ) = 2

Entry CCc1cc2c(cc1C(C)=O)C(C)(C)CCC2 ; growth inhibition = 2

// recorded growth inhibition for CC(C)(Cc1nocc1C(C)(C)CC#N)c1cc(CC(C)(C)C2(C)OCCO2)no1 : 0

# growth inhibition of COc1cc(C2C(C#N)=C(C)Nc3nc(N)nc(N)c32)cc(OC)c1OC (centres undefined) = -7

Entry under test: CC[N](CC)[Ge]([CH2]C)[CH2]C.C[CH2][Ge]([CH2]C)[CH2]C . Its growth inhibition was 19

get_value(item= CCCCCCCCCCCCCCCCCCOCC(COP(=O)([O-])OCC[N+](C)(C)C)OC (centres undefined) , readout=growth inhibition) returns -4

Per the record, N#CNC1=NCOCN1 has growth inhibition of 2

growth inhibition recorded for this molecule, c1ccc(Cc2cc3ccccc3c3ccccc23)cc1 , is 5

growth inhibition for O=C(/C=C/c1cccnc1)c1ccccc1 is 0

----------
assay.text: NCI Yeast Anticancer Drug Screen. Data for the cln2 rad14 strain (AID 165);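 note: 0% = growth equal to vehicle treated cultures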
stated.conditions: S. cerevisiae cln2 rad14 strain, at 50.0 µM
The panel holds about 79,000 compounds, 15% with a hit somewhere; the sample as a whole holds those more often. The source made the active and inactive calls. No stated cut-off is given here; in the data, active means growth inhibition above about 70%; inactive means the rest.
Output constraint: value belongs to active, inactive

Returns: the outcome recorded for CC[C@@]1(OC(=O)C(N)CCCCN)C(=O)OCc2c1cc1n(c2=O)Cc2cc3ccccc3nc2-1 (stereo partly specified) in this assay.
inactive

// param item: Cc1n(-c2ccccc2)c2c([n+]1Cc1ccc([N+](=O)[O-])cc1)C(=O)c1ccccc1C2=O ; yields the recorded call
active

Name the outcome recorded for C=C1CCC[C@@H]2[C@@](C)(Cc3cc(O)ccc3O)C(C)CC[C@]12C (stereo partly specified) in the assay.
active

Recorded test outcome, item c1ccc2c(c1)CNc1ccccc1-2
inactive

Outcome? COc1cc2c(cc1O)C1CN(C2)Cc2cc(OC)c(O)cc21
active

# fetch the recorded call for COc1nc(NC2OC(CO)C(O)C(O)C2O)c(Cl)c(=O)n1C (stereo unspecified) here
inactive

Record lookup: outcome of this test for Nc1ccc(Cc2ccc(Br)cc2)cc1 ?
active

How did this test come out for CCN1CCC(O)(/C=C/c2ccc(C)cc2)C(C(=O)/C=C/c2ccc(C)cc2)C1 (stereo unspecified) ?
active

How did this test come out for Nc1nnc(/C=C/c2ccccc2)o1 ?
inactive

Please indicate how the test categorized Oc1cccc2c1-c1ccccc1C2 .
active

Record request — test call for Cc1nnc(S(=O)(=O)c2ccc(N=Nc3c(N)nc(N)nc3N)cc2)s1
inactive
